Measured pKi of individual entries
Target: human ALK5 (Homo sapiens)
Construct: human ALK5 (recombinant TGF β1 N-term GST-tagged, 80-end); GST (N)
Assay: ADP-GLO Kinases assay of ALK5 enzymatic activity
Settings: purified recombinant human ALK5, TGFβ1 peptide substrate, pIC50 converted to pKi by Cheng-Prusoff, high ATP protocol (15 μM) for very potent compounds, 25° C.
pKi: −log10 of the molar value.

-- ask May I ask what pKi has been recorded for CN1CC2CC1CN2CC(=O)Nc1cc(Nc2cc(-c3cc(Cl)ccc3F)nnc2SCCO)ccn1 (centres unmarked) ?
-- reply ≥ 10.00

----------
Target: human ALK5 (Homo sapiens, UniProt P36897)
Construct: human ALK5 (recombinant TGF β1 N-term GST-tagged, 80-end); GST (N); purchased
Sequence (P36897 80-503 limits assumed): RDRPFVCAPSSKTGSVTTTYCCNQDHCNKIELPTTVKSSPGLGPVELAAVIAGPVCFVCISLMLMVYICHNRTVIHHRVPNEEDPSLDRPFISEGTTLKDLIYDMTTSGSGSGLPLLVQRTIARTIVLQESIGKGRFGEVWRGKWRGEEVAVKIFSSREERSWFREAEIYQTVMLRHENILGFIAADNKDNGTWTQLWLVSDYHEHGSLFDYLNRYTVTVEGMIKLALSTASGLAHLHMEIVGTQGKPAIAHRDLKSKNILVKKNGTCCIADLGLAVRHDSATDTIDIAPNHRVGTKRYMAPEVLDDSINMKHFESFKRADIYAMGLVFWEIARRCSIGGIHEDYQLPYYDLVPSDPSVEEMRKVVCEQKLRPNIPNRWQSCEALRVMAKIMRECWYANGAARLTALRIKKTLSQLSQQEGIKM
Assay: ADP-GLO Kinases assay of ALK5 enzymatic activity
Assay type: biochemical
Settings: purified recombinant human ALK5, TGFβ1 peptide substrate, pIC50 converted to pKi by Cheng-Prusoff, high ATP protocol (15 μM) for very potent compounds, 25° C.
pKi: −log10 of the molar value.
Experimental Endpoint: pKi

// below: answered compounds
CN1C2CC1CN([C@H]1C[C@@H](C(=O)Nc3cc(Nc4cc(-c5cc(Cl)ccc5F)nnc4SCCO)ccn3)C1)C2 ... ≥ 10.00
O=C(O)C1CCN([C@H]2C[C@@H](C(=O)Nc3cc(Nc4cc(-c5cc(Cl)ccc5F)nnc4SCCO)ccn3)C2)CC1 ... 9.50 to 9.90
C[C@@H]1CN(CCC(=O)Nc2cc(Nc3cc(-c4cc(Cl)ccc4F)nnc3N(C)CC3(C)CCOC3=O)ncn2)C[C@H](C)N1 (single isomer, unassigned) ... ≥ 10.00
Nc1cc(Nc2cc(-c3cc(Cl)ccc3F)nnc2OCCO)ccn1 ... 8.50 to 9.40
CN1CCN(CCC(=O)Nc2cc(Nc3cc(-c4cc(Cl)ccc4F)nnc3O[C@H]3C[C@@H](CO)C3)ccn2)CC1 ... ≥ 10.00
CN1CCN(CCC(=O)Nc2cc(Nc3cc(-c4cc(Cl)ccc4F)nnc3OC[C@H]3C[C@@H](O)C3)ccn2)CC1 ... ≥ 10.00

-- ask Please tell me: pKi of "CSc1nnc(-c2cc(Cl)ccc2F)cc1Nc1ccnc(NC(=O)CCN2CCN(CCN)CC2)c1" , system human ALK5 (Homo sapiens, UniProt P36897)?
-- reply ≥ 10.00

-- ask Please tell me: pKi of "CS(=O)(=O)NCCOc1nnc(-c2cc(Cl)ccc2F)cc1Nc1ccnc(N)c1" , system human ALK5 (Homo sapiens, UniProt P36897)?
-- reply ≥ 10.00

----------
Measured pKi of individual entries
Biological target: human ALK5 (Homo sapiens)
Construct: human ALK5 (recombinant TGF β1 N-term GST-tagged, 80-end); GST (N)
Assay: ADP-GLO Kinases assay of ALK5 enzymatic activity
Details: purified recombinant human ALK5, TGFβ1 peptide substrate, pIC50 converted to pKi by Cheng-Prusoff, high ATP protocol (15 μM) for very potent compounds, 25° C.
pKi: −log10 of the molar value.

CN1CCN(CCC(=O)Nc2cc(Nc3cc(-c4cc(Cl)ccc4F)nnc3OCC3COC(C)(C)O3)ccn2)CC1 (stereo not shown) ... ≥ 10.00

-- ask May I ask what pKi has been recorded for "CSCCCOc1nnc(-c2cc(Cl)ccc2F)cc1Nc1ccnc(NC(=O)CCN2CCN(C)CC2)c1" ?
-- reply 9.50 to 9.90

-- ask May I ask what pKi has been recorded for "CN(C)CCOc1nnc(-c2cc(Cl)ccc2F)cc1Nc1ccnc2[nH]ccc12" ?
-- reply 8.50 to 9.40

Cited source: patent US20250011299A1
